# tested_system: Gag-Pol polyprotein [588-1027]/[588-1147] (Human immunodeficiency virus 1, UniProt P04585)
# Construct: 588-1027; 588-1147
# measurement_description: HIV-1 RT Assay
# setup_conditions: pH 7.9
pIC50: −log10 of the molar value.
We begin with a simple list: items and their reported pIC50.

Guide cases for pIC50, answers given:
CCOC(=O)N1CCC(=C(c2cc(C)c(OC)c(C(=O)OC)c2)c2cc(C)c(OC)c(C(=O)OC)c2)CC1 : < 4.00
COC(=O)N1CCC(=C2c3ccccc3C=Cc3ccccc32)CC1 : < 4.00
COC(=O)c1cc(C(c2cc(C)c(OC)c(C(=O)OC)c2)C2CCN(C(=O)OC)CC2)cc(C)c1OC : < 4.00
COC(=O)CCCC(=O)N1CCC(=C(c2cc(C)c(OC)c(C(=O)OC)c2)c2cc(C)c(OC)c(C(=O)OC)c2)CC1 : < 4.00
COC(=O)c1cc(C(=C2CCN(C(=O)OC)CC2)c2cc(Cl)c(OC)c(C(=O)OC)c2)cc(Cl)c1OC : < 4.00
COC(=O)N1CCC(=C(c2cc(Cl)c(OC)c(C(=O)O)c2)c2cc(Cl)c(OC)c(C(=O)O)c2)CC1 : < 4.00
COC(=O)c1cc(C(=C2CCN(C(=O)OC)CC2)c2cc(C)c(OC)c(C(=O)OC)c2)cc(C)c1OC : < 4.00
CCOC(=O)N1CCC(C(c2cc(C)c(OC)c(C(=O)OC)c2)c2cc(C)c(OC)c(C(=O)OC)c2)CC1 : < 4.00
COC(=O)CCCC(=O)N1CCC(=C(c2cc(Cl)c(OC)c(C(=O)OC)c2)c2cc(Cl)c(OC)c(C(=O)OC)c2)CC1 : < 4.00
COC(=O)N1CCC(=C2c3ccccc3CCc3ccccc32)CC1 : < 4.00

Query block: I'd like to know its pIC50. The compound in question is CCOC(=O)N1CCC(=C(c2cc(Cl)c3c(c2)C(=O)OC(C)(C)O3)c2cc(Cl)c3c(c2)C(=O)OC(C)(C)O3)CC1
Result block: < 4.00

Query block: I'd like to know its pIC50. The compound in question is CCOC(=O)N1CCC(=C(c2cc(Cl)c(O)c(C(=O)O)c2)c2cc(Cl)c(O)c(C(=O)O)c2)CC1
Result block: < 4.00

Query block: I'd like to know its pIC50. The compound in question is CCOC(=O)N1CCC(=C(c2cc(Cl)c(OC)c(C(=O)OC)c2)c2cc(Cl)c(OC)c(C(=O)OC)c2)CC1
Result block: < 4.00

Query block: I'd like to know its pIC50. The compound in question is CCOC(=O)N1CCC(=C(c2cc(Cl)c(OC)c(C(=O)O)c2)c2cc(Cl)c(OC)c(C(=O)O)c2)CC1
Result block: < 4.00
